- measurement_target: human PRMT1 (Homo sapiens)
- Construct: GST-tagged PRMT1; made in house; host or cells: High Five insect cells (baculovirus)
- Sequence (Q99873 other isoform, or with tags, fused parts or gaps): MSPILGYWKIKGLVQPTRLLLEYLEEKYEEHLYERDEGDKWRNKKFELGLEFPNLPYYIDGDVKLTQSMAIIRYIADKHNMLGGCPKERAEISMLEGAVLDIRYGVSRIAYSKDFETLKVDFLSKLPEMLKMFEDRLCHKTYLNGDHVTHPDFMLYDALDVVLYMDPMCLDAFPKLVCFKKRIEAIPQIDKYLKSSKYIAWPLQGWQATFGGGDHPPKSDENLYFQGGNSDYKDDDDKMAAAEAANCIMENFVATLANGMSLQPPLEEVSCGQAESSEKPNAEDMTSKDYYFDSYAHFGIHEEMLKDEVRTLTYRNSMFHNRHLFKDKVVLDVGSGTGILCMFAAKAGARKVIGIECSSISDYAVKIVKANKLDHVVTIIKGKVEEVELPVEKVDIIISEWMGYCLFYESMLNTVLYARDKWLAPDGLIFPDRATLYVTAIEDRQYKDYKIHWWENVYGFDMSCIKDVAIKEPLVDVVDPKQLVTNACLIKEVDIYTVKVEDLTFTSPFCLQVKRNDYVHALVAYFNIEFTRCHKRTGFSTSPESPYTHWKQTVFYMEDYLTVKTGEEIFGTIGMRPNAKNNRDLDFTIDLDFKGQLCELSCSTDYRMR
- assay_notes: biochemical
- condition_description: biochemical evaluation, peptide substrate; read-out: PRMT1 IC50
Please respond with reported IC50 for every item in the list.

Query: What measured IC50 goes with CNCCN(C)Cc1n[nH]c2cccc(OCCC(C)C)c12 [Compound 31] ?
Reply: ≤ 0.1 µM

Query: Ok, now CNCCN(C)Cc1n[nH]c2ccc(OCC3CCOCC3)cc12 [Compound 50]
Reply: 3.01 to 10 µM

Query: Ok, now CNCCN(C)Cc1c2cc(OCc3ccc(C#N)cc3)ccc2nn1C1CCOCC1 [Compound 53]
Reply: 3.01 to 10 µM
